Values from PubChem BioAssay (NCI)

# Tested on: HL-60(TB) leukemia
# methodNotes: NCI tumour cell line growth inhibition, 48 h
Examples of molecules with documented TGI follow.

molecule	TGI
C#Cc1cccc(Nc2ncnc3cc(OCCOC)c(OCCOC)cc23)c1	> 100 µM
CCOC(=O)c1nc2ccccc2nc1Nc1ccc(F)cc1	> 100 µM
CN1CCCC(OC(=O)c2cc3cc(CCl)ccc3oc2=O)C1 (centres undefined)	13.2 µM
Cc1ccc(Cl)c2c(=O)cc(-c3ccccc3)[nH]c12	> 100 µM
Cc1ccc(NC(=O)CC2C(=O)Nc3ccccc3S2=O)cc1C (centres undefined)	> 100 µM
Clc1ccc(Cl)c2[s+]snc12	> 100 µM
CC(=O)NC1C(OCc2ccccc2)OC(CO)C(O)C1OCC(=O)N[C@@H](C)C(=O)N[C@H](CCC(=O)NCCCCNc1c2ccccc2nc2cccc([N+](=O)[O-])c12)C(N)=O (some centres undefined)	> 100 µM
O=c1n(C2CCCCC2)c(=C(Cl)Cl)c(=C(Cl)Cl)n1C1CCCCC1	> 100 µM
CC(=O)NCC1OC2COC(c3ccccc3)OC2C2N=C(c3ccccc3)OC12 (centres undefined)	52.9 µM
